Entries and their Ki values follow.
- target-system: Cannabinoid receptor 2 (Homo sapiens)
- Sequence (P34972 whole entry): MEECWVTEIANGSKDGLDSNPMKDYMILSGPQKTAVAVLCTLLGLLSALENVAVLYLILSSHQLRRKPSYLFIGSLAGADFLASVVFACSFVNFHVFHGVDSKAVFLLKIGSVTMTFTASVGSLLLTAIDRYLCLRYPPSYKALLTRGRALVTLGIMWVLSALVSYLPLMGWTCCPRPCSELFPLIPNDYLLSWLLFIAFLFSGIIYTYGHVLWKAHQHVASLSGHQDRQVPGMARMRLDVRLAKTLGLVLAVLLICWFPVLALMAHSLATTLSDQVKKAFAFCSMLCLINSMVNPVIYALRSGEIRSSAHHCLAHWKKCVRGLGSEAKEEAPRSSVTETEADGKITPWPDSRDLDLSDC
- method-summary: biochemical
- Description: Displacement of [3H]-CP55950 from human CB2 receptor expressed in HEK cell membranes after 3 hrs by scintillation counting method
Provide the reading as a plain figure in µM.

Solved cases (2 shown):
molecule-smiles: CCOc1ccc(Cc2nc3cc(N)ccc3n2CCC(C)C)cc1
Ki [µM]: 21
//
molecule-smiles: CCOc1ccc(Nc2nc3cc(C(=O)N(CC)CC)ccc3n2CCN2CCCCC2)cc1
Ki [µM]: 10.4

Q: Form field - read-out: Ki; system: Cannabinoid receptor 2 (Homo sapiens); submitted item: CCOc1ccc(Cc2nc3cc(C(=O)N(CC)CC)ccc3n2CCCCCCN2CCCCC2)cc1
Ans: 1

====

- target-system: Cannabinoid receptor 1 (Homo sapiens)
- Sequence (P21554 whole entry): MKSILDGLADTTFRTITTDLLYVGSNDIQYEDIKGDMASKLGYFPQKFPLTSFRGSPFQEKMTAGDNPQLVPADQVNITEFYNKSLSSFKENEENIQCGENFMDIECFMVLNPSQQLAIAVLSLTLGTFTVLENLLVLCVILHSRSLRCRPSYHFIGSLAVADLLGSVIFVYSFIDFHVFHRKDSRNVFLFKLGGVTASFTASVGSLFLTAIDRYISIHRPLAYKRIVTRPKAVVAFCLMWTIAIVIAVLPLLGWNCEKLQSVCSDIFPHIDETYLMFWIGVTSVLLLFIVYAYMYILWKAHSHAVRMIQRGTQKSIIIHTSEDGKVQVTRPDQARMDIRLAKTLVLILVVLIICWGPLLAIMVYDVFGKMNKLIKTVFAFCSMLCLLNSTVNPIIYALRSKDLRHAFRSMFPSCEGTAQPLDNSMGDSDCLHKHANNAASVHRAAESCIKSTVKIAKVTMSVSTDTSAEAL
measured-metric: Ki
Record the result as a number with its unit.

Q: Can you look up Ki on Cannabinoid receptor 1 (Homo sapiens) for CCOc1ccc(Cc2nc3cc(C(=O)N4CCCCC4)ccc3n2CCC(C)C)cc1 ?
Ans: 17 µM

====

As an illustration, consider measured IC50 for compounds on UniProt:P81908.
Sequence (P81908 whole entry): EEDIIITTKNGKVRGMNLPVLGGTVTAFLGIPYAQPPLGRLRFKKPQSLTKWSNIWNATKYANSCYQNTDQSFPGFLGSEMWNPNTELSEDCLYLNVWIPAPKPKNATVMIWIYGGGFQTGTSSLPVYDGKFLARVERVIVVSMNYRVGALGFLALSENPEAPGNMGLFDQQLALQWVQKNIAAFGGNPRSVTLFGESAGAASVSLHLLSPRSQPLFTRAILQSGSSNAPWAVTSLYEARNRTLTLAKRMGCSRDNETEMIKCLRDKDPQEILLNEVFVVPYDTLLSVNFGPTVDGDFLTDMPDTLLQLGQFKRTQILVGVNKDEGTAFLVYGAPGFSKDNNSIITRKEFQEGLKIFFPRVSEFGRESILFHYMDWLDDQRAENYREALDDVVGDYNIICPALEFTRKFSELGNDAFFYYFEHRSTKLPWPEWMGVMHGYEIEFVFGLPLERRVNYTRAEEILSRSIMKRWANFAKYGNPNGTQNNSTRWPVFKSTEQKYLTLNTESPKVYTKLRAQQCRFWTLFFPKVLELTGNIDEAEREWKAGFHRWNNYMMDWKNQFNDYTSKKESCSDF
The response must be a number in µM with no trailing unit.

molecule-smiles: CCOc1ccc(Cc2nc3cc(C(=O)N(CC)CC)ccc3n2CCC(C)C)cc1
target-system: UniProt:P81908
reported-measurement: 9.7
--
molecule-smiles: CCOc1ccc(Nc2nc3cc(C(=O)N(CC)CC)ccc3n2CCC(C)C)cc1
target-system: UniProt:P81908
reported-measurement: 0.7

Moving on to another compound below.
Q: Provide the documented IC50 with UniProt:P81908 as the system for CCN(CC)C(=O)c1ccc2c(c1)nc(Nc1ccc(Oc3ccccc3)cc1)n2CCC(C)C
Ans: 3.7

====

- target-system: Cholinesterase (Homo sapiens, UniProt P06276)
- Sequence (P06276 whole entry): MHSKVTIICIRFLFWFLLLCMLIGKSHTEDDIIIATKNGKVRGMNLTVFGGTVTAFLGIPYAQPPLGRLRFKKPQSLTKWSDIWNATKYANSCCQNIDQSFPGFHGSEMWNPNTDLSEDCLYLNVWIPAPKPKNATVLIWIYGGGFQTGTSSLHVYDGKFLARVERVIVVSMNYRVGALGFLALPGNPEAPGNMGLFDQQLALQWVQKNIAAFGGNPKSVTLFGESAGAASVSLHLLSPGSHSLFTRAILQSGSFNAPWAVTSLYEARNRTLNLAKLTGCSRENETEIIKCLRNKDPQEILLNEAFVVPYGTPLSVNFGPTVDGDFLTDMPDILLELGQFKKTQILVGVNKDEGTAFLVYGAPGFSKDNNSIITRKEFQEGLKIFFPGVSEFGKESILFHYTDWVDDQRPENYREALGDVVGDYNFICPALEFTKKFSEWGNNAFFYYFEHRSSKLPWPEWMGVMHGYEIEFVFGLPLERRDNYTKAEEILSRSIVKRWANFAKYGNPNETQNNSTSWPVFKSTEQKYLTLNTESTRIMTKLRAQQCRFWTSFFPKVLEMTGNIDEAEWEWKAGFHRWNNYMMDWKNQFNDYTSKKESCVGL
- method-summary: Inhibition of human BChE at 10 uM using BTC iodide as substrate preincubated for 4.5 mins followed by substrate addition measured after 2.5 mins by Ellman's method relative to control
Outcome label depends on inhibition relative to 3%: at/above gives rule met, below gives rule not met.

Known results for molecules:
molecule-smiles: CCOc1ccc(Cc2nc3cc(C(=O)N(CC)CC)ccc3n2CCC(C)C)cc1
label: rule not met

molecule-smiles: CCOc1ccc(Cc2nc3cc(NC(=O)c4ccccc4)ccc3n2CCC(C)C)cc1
label: rule met

molecule-smiles: CCOc1ccc(Cc2nc3cc(C(=O)NC45CC6CC(CC(C6)C4)C5)ccc3n2CCC(C)C)cc1
label: rule not met

Q: Is inhibition for CCN(CC)C(=O)c1ccc2c(c1)nc(Nc1ccc(Oc3ccccc3)cc1)n2CCC(C)C at or above 3%?
Ans: rule not met

====

- target-system: Acetylcholinesterase (Homo sapiens, UniProt P22303)
- Sequence (P22303 whole entry): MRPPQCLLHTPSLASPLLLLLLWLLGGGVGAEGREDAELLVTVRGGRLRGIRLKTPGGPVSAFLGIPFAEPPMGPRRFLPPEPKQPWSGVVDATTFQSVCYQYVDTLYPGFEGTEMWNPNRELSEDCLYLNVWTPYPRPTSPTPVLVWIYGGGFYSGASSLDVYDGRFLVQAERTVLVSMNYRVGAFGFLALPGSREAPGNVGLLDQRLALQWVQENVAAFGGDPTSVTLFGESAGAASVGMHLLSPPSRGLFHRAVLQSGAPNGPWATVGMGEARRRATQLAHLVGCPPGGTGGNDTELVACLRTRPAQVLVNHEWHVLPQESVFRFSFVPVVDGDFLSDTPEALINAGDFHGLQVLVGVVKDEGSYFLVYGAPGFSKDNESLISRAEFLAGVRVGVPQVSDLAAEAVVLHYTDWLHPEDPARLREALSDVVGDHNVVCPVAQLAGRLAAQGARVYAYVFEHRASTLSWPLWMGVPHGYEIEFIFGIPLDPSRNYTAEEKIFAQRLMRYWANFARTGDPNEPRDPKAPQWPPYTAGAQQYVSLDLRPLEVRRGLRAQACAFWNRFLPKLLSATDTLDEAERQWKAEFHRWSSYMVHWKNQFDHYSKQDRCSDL
- method-summary: Inhibition of human erythrocyte AChE at 10 uM using ATC iodide as substrate preincubated for 4.5 mins followed by substrate addition measured after 2.5 mins by Ellman's method relative to control
measured-metric: inhibition (%)
Value expressed in %; do not type the unit.

Solved cases below.
molecule-smiles: CCCCCCNC(=O)c1ccc2c(c1)nc(Cc1ccc(OCC)cc1)n2CCC(C)C
unit-of-measure: %
inhibition: 6
--
molecule-smiles: CCN(CC)C(=O)c1ccc2c(c1)nc(Nc1ccc(Oc3ccccc3)cc1)n2CCC(C)C
unit-of-measure: %
inhibition: 3
--
molecule-smiles: CCOc1ccc(Cc2nc3cc(C(=O)Nc4ccccc4)ccc3n2CCC(C)C)cc1
unit-of-measure: %
inhibition: 5

Q: Name the reported inhibition value associated with the compound CCOc1ccc(Nc2nc3cc(C(=O)N(CC)CC)ccc3n2CCC(C)C)cc1
Ans: 13

Q: Param item = CCOc1ccc(Nc2nc3cc(C(=O)N(CC)CC)ccc3n2CCN2CCCCC2)cc1 ; retrieve measured inhibition.
Ans: 3

Q: Need inhibition of CCOc1ccc(Cc2nc3cc(C(=O)N4CCCCC4)ccc3n2CCC(C)C)cc1 , thanks.
Ans: 2

Q: Give the measured inhibition of CCOc1ccc(Cc2nc3cc(C(=O)NCCC(C)C)ccc3n2CCC(C)C)cc1 .
Ans: 11

====

- target-system: Cannabinoid receptor 1 (Homo sapiens)
- method-summary: Displacement of [3H]-[…] from human CB1 receptor expressed in CHO cell membranes at 10 uM after 3 hrs by scintillation counting method relative to control
measured-metric: inhibition (%)
Could you give me the number in %? Just the number is fine.

molecule-smiles: CCOc1ccc(Nc2nc3cc(C(=O)N(CC)CC)ccc3n2CCN2CCCCC2)cc1
target-system: Cannabinoid receptor 1 (Homo sapiens)
unit-of-measure: %
inhibition: 17
//
molecule-smiles: CCOc1ccc(Cc2nc3cc(C(=O)N(CC)CC)ccc3n2CCCCN2CCCCC2)cc1
target-system: Cannabinoid receptor 1 (Homo sapiens)
unit-of-measure: %
inhibition: 2
//
molecule-smiles: CCOc1ccc(Cc2nc3cc(C(=O)N(CC)CC)ccc3n2CCC(C)C)cc1
target-system: Cannabinoid receptor 1 (Homo sapiens)
unit-of-measure: %
inhibition: 24

Q: Give the measured inhibition of CCOc1ccc(Cc2nc3cc(C(=O)N(CC)CC)ccc3n2CCCCCCN2CCCCC2)cc1 .
Ans: 4

====

- target-system: Acetylcholinesterase (Electrophorus electricus)
- method-summary: Inhibition of electric eel AChE at 100 uM using ATC iodide as substrate preincubated for 4.5 mins followed by substrate addition measured after 2.5 mins by Ellman's method relative to control
Given measured inhibition, output Yes if it is greater than or equal to 20% and No if not.

molecule-smiles: CCOc1ccc(Cc2nc3cc(N)ccc3n2CCC(C)C)cc1
label: No

Q: Entry CCOc1ccc(Nc2nc3cc(C(=O)N(CC)CC)ccc3n2CCC(C)C)cc1 : is its inhibition no less than 20%?
Ans: No

Q: Is reported inhibition greater than or equal to 20% here: CCOc1ccc(Nc2nc3cc(C(=O)N(CC)CC)ccc3n2CCN2CCCCC2)cc1
Ans: No

Q: Hello, I need to know if CCOc1ccc(Cc2nc3cc(C(=O)N(CC)CC)ccc3n2CCC(C)C)cc1 has measured inhibition not below 20%. Thanks!
Ans: Yes

Q: Can CCN(CC)C(=O)c1ccc2c(c1)nc(Nc1ccc(Oc3ccccc3)cc1)n2CCC(C)C be said to have inhibition at or above 20%?
Ans: No

====

- target-system: UniProtKB P21554
- method-summary: Displacement of [3H]-[…] from human CB1 receptor expressed in CHO cell membranes at 10 uM after 3 hrs by scintillation counting method relative to control
Record Yes whenever inhibition is at 30% or higher; record No when lower.

Examples with answers:
molecule-smiles: CCOc1ccc(Cc2nc3cc(C(=O)NCCC(C)C)ccc3n2CCC(C)C)cc1
label: Yes

molecule-smiles: CCOc1ccc(Cc2nc3cc(N)ccc3n2CCC(C)C)cc1
label: No

molecule-smiles: CCOc1ccc(Cc2nc3cc(C(=O)Nc4ccccc4)ccc3n2CCC(C)C)cc1
label: No

molecule-smiles: CCN(CC)C(=O)c1ccc2c(c1)nc(Nc1ccc(Oc3ccccc3)cc1)n2CCN1CCCCC1
label: Yes

molecule-smiles: CCOc1ccc(Nc2nc3cc(C(=O)N(CC)CC)ccc3n2CCC(C)C)cc1
label: No

Q: Decide: inhibition of CCOc1ccc(Cc2nc3cc(NC(=O)c4ccccc4)ccc3n2CCC(C)C)cc1 >= 30%?
Ans: Yes

Q: For this molecule, is measured inhibition 30% or higher? CCOc1ccc(Cc2nc3cc(C(=O)NC45CC6CC(CC(C6)C4)C5)ccc3n2CCC(C)C)cc1
Ans: Yes

Q: Dear colleague, could you confirm whether CCOc1ccc(CNc2nc3cc(C(=O)N(CC)CC)ccc3n2CCC(C)C)cc1 has inhibition at or above 30%?
Ans: No

Q: Dear colleague, could you confirm whether CCN(CC)C(=O)c1ccc2c(c1)nc(Nc1ccc(Oc3ccccc3)cc1)n2CCC(C)C has inhibition at or above 30%?
Ans: Yes

Q: Say whether CCCCCCNC(=O)c1ccc2c(c1)nc(Cc1ccc(OCC)cc1)n2CCC(C)C shows inhibition of 30% or more.
Ans: Yes

====

- target-system: Acetylcholinesterase (Electrophorus electricus) (UniProt O42275)
- Sequence (O42275 24-633 limits assumed): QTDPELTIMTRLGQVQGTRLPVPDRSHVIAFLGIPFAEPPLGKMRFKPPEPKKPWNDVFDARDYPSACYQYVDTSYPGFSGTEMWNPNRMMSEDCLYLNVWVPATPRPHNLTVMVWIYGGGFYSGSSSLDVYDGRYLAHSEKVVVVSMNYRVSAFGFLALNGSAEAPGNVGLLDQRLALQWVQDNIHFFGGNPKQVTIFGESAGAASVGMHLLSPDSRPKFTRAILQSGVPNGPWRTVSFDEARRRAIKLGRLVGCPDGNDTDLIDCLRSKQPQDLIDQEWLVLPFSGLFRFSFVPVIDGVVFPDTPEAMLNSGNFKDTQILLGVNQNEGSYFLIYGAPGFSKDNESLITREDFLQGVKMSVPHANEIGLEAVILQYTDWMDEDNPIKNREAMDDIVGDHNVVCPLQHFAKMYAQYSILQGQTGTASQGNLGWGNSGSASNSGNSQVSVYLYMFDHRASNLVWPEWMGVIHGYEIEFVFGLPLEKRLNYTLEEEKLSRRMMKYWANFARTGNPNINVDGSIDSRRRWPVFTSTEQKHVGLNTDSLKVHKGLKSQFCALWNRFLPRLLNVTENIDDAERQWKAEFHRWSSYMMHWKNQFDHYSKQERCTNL
- method-summary: Inhibition of electric eel AChE at 10 uM using ATC iodide as substrate preincubated for 4.5 mins followed by substrate addition measured after 2.5 mins by Ellman's method relative to control
measured-metric: inhibition (%)
Reply with just the number (in %).

Q: I have this compound here, CCOc1ccc(Cc2nc3cc(C(=O)N4CCCCC4)ccc3n2CCC(C)C)cc1 , and I need its recorded inhibition.
Ans: 8

Q: Query (compound): CCOc1ccc(Cc2nc3cc(C(=O)NC45CC6CC(CC(C6)C4)C5)ccc3n2CCC(C)C)cc1 ; field requested: inhibition
Ans: 5

====

What follows is a record of IC50 for Cannabinoid receptor 2 (Homo sapiens).
Number in µM, nothing else.

Recorded IC50, per entry:
molecule-smiles: CCOc1ccc(Cc2nc3cc(C(=O)N(CC)CC)ccc3n2CCCCN2CCCCC2)cc1
reported-measurement: 5.01

molecule-smiles: CCCCCCNC(=O)c1ccc2c(c1)nc(Cc1ccc(OCC)cc1)n2CCC(C)C
reported-measurement: 2

molecule-smiles: CCOc1ccc(Nc2nc3cc(C(=O)N(CC)CC)ccc3n2CCN2CCCCC2)cc1
reported-measurement: 12.6

Q: Item CCN(CC)C(=O)c1ccc2c(c1)nc(Nc1ccc(Oc3ccccc3)cc1)n2CCN1CCCCC1 has what recorded IC50?
Ans: 7.94

Q: Suppose we examine the compound CCOc1ccc(Nc2nc3cc(C(=O)N(CC)CC)ccc3n2CCC(C)C)cc1 ; what IC50 value has been reported?
Ans: 2

Q: What does the data say about its IC50? Entry: CCN(CC)C(=O)c1ccc2c(c1)nc(Nc1ccc(Oc3ccccc3)cc1)n2CCC(C)C
Ans: 0.501

Q: Recorded IC50 of CCOc1ccc(Cc2nc3cc(N)ccc3n2CCC(C)C)cc1 , please.
Ans: 20

Q: Looking for the measured IC50 of CCOc1ccc(Cc2nc3cc(NC(=O)c4ccccc4)ccc3n2CCC(C)C)cc1 , can you help?
Ans: 3.98
